test: Half life in nude mouse microsomes; assay type: ADME, Microsome
property.label: half-life (min)

The examples below pair each entry with its known result.
{"structure.string": "O=C(Nc1ccccc1)Nc1ccc(-c2nc(C3=CCOCC3)c3sccc3n2)cc1", "reported.value": 21}
{"structure.string": "O=C(NCCF)Nc1ccc(-c2nc(N3CCOCC3)c3cnn(CC(F)(F)F)c3n2)cc1", "reported.value": 22}
{"structure.string": "O=C(Nc1ccc(-c2nc(C3=CCOCC3)c3cnn(CC(F)(F)F)c3n2)cc1)Nc1cccnc1", "reported.value": 25}

A = CNC(=O)Nc1ccc(-c2nc(N3CCOCC3)c3cnn(CC(F)(F)F)c3n2)cc1
B = CNC(=O)Nc1ccc(-c2nc(C3=CCOCC3)c3cnn(CC(F)(F)F)c3n2)cc1
C = O=C(NCCF)Nc1ccc(-c2nc(C3=CCOCC3)c3sccc3n2)cc1
D = CCNC(=O)Nc1ccc(-c2nc(C3=CCOCC3)c3sccc3n2)cc1
Query block: Hey, quick one: sort these by half-life, low to high? Form entry: labels listed in requested order.
Result block: D, C, B, A

###

target: Serine/threonine-protein kinase mTOR (Homo sapiens, UniProt P42345); test: Inhibition of mTOR in HEK293 cells by DELFIA assay; assay type: cell-based; settings: hek293
property.label: IC50 (nM)

A = O=C(NCCF)Nc1ccc(-c2nc(N3CCOCC3)c3cnn(CC(F)(F)F)c3n2)cc1
B = CNC(=O)Nc1ccc(-c2nc(N3CCOCC3)c3cnn(CC(F)(F)F)c3n2)cc1
Query block: Compare A and B by numeric IC50 and name the larger one. Answer format: the label of the selected item.
Result block: B
(B: 1 nM, A: 0.6 nM)

###

test: Selectivity ratio, IC50 for PI3Kalpha to IC50 for human mTOR
property.label: Ratio IC50

I = O=C(Nc1ccc(-c2nc(N3CCOCC3)c3cnn(CC(F)(F)F)c3n2)cc1)Nc1cccnc1
II = O=C(NCCF)Nc1ccc(-c2nc(C3=CCOCC3)c3cnn(CC(F)(F)F)c3n2)cc1
III = O=C(NCCF)Nc1ccc(-c2nc(N3CCOCC3)c3cnn(CC(F)(F)F)c3n2)cc1
Query block: Put the listed items above in order, lowest Ratio IC50 first. Form entry: labels listed in requested order.
Result block: I, III, II
(I: 50, III: 525, II: 2300)

###

molecular target: Serine/threonine-protein kinase mTOR (Homo sapiens, UniProt P42345); assay: Inhibition of mTOR in HEK293 cells by DELFIA assay; format: cell-based
property.label: IC50 (nM)

The examples below pair each entry with its known result.
{"structure.string": "O=C(Nc1ccc(-c2nc(N3CCOCC3)c3cnn(CC(F)(F)F)c3n2)cc1)Nc1cccnc1", "IC50, nM": 0.2}
{"structure.string": "Oc1cccc(-c2nc(C3CCOCC3)c3cnn(-c4ccccc4)c3n2)c1", "IC50, nM": 500}
{"structure.string": "O=C(Nc1ccncc1)Nc1ccc(-c2nc(C3=CCOCC3)c3sccc3n2)cc1", "IC50, nM": 1.8}
{"structure.string": "O=C(Nc1ccc(-c2nc(C3=CCOCC3)c3cnn(CC(F)(F)F)c3n2)cc1)Nc1cccnc1", "IC50, nM": 1}

I = CCNC(=O)Nc1ccc(-c2nc(C3=CCOCC3)c3sccc3n2)cc1
II = O=C(NCCF)Nc1ccc(-c2nc(C3=CCOCC3)c3cnn(CC(F)(F)F)c3n2)cc1
Query block: # min-compare on IC50 between I and II Answer format: the label of the selected item.
Result block: II
(II: 1 nM, I: 3.3 nM)

###

biological target: Phosphatidylinositol 4,5-bisphosphate 3-kinase catalytic subunit alpha isoform (Homo sapiens, UniProt P42336); experiment: Inhibition of PI3Kalpha by fluorescence polarization assay
Sequence (P42336 whole entry, canonical isoform): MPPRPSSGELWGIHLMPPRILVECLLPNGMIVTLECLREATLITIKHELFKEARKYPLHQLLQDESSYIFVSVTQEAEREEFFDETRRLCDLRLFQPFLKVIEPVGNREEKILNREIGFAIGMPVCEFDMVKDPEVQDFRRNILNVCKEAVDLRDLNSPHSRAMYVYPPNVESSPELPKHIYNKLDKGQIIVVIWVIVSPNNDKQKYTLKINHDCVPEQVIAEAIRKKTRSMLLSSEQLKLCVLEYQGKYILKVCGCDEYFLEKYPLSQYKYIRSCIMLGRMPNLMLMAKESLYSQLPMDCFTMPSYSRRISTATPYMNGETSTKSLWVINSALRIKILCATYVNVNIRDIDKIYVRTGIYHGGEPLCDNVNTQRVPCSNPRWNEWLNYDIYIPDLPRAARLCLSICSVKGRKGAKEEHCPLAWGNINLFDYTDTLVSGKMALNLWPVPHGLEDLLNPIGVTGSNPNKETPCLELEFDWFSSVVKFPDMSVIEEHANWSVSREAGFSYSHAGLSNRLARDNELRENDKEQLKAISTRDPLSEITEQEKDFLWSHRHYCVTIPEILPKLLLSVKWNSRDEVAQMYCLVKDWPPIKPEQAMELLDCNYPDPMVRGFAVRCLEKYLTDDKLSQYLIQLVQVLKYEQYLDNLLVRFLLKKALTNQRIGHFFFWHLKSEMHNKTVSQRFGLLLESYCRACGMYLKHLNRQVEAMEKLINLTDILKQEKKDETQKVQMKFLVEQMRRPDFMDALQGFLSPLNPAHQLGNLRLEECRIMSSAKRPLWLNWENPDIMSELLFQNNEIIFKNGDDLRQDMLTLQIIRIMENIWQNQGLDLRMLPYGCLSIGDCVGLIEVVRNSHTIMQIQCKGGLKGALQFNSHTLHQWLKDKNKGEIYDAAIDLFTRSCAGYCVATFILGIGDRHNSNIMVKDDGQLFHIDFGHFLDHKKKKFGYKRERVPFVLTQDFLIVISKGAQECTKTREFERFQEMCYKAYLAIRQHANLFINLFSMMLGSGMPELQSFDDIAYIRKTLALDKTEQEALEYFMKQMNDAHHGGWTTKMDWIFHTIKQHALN
property.label: IC50 (nM)

The examples below pair each entry with its known result.
{"structure.string": "O=C(Nc1ccc(-c2nc(C3=CCOCC3)c3sccc3n2)cc1)Nc1cccnc1", "IC50 (nM)": 35}
{"structure.string": "O=C(Nc1ccccc1)Nc1ccc(-c2nc(C3=CCOCC3)c3sccc3n2)cc1", "IC50 (nM)": 28}
{"structure.string": "O=C(NCCF)Nc1ccc(-c2nc(C3=CCOCC3)c3sccc3n2)cc1", "IC50 (nM)": 1370}
{"structure.string": "CCNC(=O)Nc1ccc(-c2nc(C3=CCOCC3)c3sccc3n2)cc1", "IC50 (nM)": 1050}

1 = Oc1cccc(-c2nc(C3=CCOCC3)c3cnn(-c4ccccc4)c3n2)c1
2 = Oc1cccc(-c2nc(C3CCOCC3)c3cnn(-c4ccccc4)c3n2)c1
Query block: # min-compare on IC50 between 1 and 2 Answer format: the label of the selected item.
Result block: 1

A = O=C(Nc1ccncc1)Nc1ccc(-c2nc(C3=CCOCC3)c3sccc3n2)cc1
B = CNC(=O)Nc1ccc(-c2nc(C3=CCOCC3)c3cnn(CC(F)(F)F)c3n2)cc1
Query block: # min-compare on IC50 between A and B Answer format: the label of the selected item.
Result block: A

###

assay: Selectivity ratio, IC50 for PI3Kalpha to IC50 for human mTOR
property.label: Ratio IC50

{"structure.string": "O=C(Nc1ccc(-c2nc(C3=CCOCC3)c3cnn(CC(F)(F)F)c3n2)cc1)Nc1cccnc1", "Ratio IC50": 66}

a = O=C(Nc1ccccc1)Nc1ccc(-c2nc(C3=CCOCC3)c3sccc3n2)cc1
b = Oc1cccc(-c2nc(C3CCOCC3)c3cnn(-c4ccccc4)c3n2)c1
Query block: Compare a and b by numeric Ratio IC50 and name the larger one. Answer format: the label of the selected item.
Result block: a
(a: 4, b: 2)

I = O=C(Nc1ccc(-c2nc(C3=CCOCC3)c3sccc3n2)cc1)Nc1cccnc1
II = O=C(NCCF)Nc1ccc(-c2nc(C3=CCOCC3)c3sccc3n2)cc1
Query block: # min-compare on Ratio IC50 between I and II Answer format: the label of the selected item.
Result block: I

###

assay: Selectivity ratio, IC50 for PI3Kalpha to IC50 for human mTOR
property.label: Ratio IC50

{"structure.string": "CCNC(=O)Nc1ccc(-c2nc(C3=CCOCC3)c3sccc3n2)cc1", "reported.value": 319}

A = Oc1cccc(-c2nc(C3=CCOCC3)c3cnn(-c4ccccc4)c3n2)c1
B = CNC(=O)Nc1ccc(-c2nc(C3=CCOCC3)c3cnn(CC(F)(F)F)c3n2)cc1
C = O=C(Nc1ccncc1)Nc1ccc(-c2nc(C3=CCOCC3)c3sccc3n2)cc1
D = CNC(=O)Nc1ccc(-c2nc(N3CCOCC3)c3cnn(CC(F)(F)F)c3n2)cc1
Query block: Hey, quick one: sort these by Ratio IC50, low to high? Form entry: labels listed in requested order.
Result block: A, C, B, D
(A: 3.3, C: 15, B: 100, D: 194)

###

target: Serine/threonine-protein kinase mTOR (Homo sapiens, UniProt P42345); assay: Inhibition of mTOR in HEK293 cells by DELFIA assay; assay type: cell-based
property.label: IC50 (nM)

{"structure.string": "Oc1cccc(-c2nc(C3=CCOCC3)c3cnn(-c4ccccc4)c3n2)c1", "measure.unit": "nM", "reported.value": 18}

A = CNC(=O)Nc1ccc(-c2nc(C3=CCOCC3)c3cnn(CC(F)(F)F)c3n2)cc1
B = O=C(Nc1ccc(-c2nc(C3=CCOCC3)c3sccc3n2)cc1)Nc1cccnc1
Query block: Compare A and B by numeric IC50 and name the larger one. Answer format: the label of the selected item.
Result block: A

A = O=C(NCCF)Nc1ccc(-c2nc(C3=CCOCC3)c3sccc3n2)cc1
B = O=C(Nc1ccccc1)Nc1ccc(-c2nc(C3=CCOCC3)c3sccc3n2)cc1
Query block: # min-compare on IC50 between A and B Answer format: the label of the selected item.
Result block: A
